Hey, just so you know, these numbers are from ChEMBL document CHEMBL4219124.

- STUDY_SYSTEM: Prostacyclin synthase (Homo sapiens) (UniProt Q16647)
- Sequence (Q16647 whole entry): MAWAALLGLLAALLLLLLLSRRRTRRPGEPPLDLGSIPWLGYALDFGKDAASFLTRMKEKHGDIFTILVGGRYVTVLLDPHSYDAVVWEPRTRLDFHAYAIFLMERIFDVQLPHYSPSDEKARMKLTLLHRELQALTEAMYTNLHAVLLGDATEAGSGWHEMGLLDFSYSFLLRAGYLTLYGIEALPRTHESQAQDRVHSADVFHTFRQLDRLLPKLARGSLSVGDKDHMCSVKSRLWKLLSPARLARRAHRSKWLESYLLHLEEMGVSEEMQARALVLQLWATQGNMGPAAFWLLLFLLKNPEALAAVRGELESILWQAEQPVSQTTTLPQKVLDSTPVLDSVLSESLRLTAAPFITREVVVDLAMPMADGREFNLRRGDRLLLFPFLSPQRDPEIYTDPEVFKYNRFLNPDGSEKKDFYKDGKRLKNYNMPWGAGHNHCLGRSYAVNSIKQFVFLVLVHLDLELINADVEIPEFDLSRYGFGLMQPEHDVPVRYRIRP
- MEASUREMENT_DESCRIPTION: Inhibition of recombinant human PGIS expressed in CHO cells at 10 uM relative to control
- Format: cell-based
Hi there, I'd appreciate the recorded inhibition for every entry that follows.
Phrase the answer as number then unit, nothing more needed.

Sample `Cc1cccc(Cl)c1Nc1nc2cc(C(=O)Nc3cc(C(F)F)ccc3F)c3c(c2[nH]1)CC(C)(C)O3` — what was its inhibition?
20.1%

Entry to check: `CC1(C)Cc2c(c(C(=O)Nc3cc(C(F)(F)F)ccc3F)cc3nc(Nc4c(F)cccc4Cl)[nH]c23)O1`
5.6%

Also `CC1(C)Cc2c(c(C(=O)Nc3ccc(C(F)(F)F)cn3)cc3nc(Nc4c(Cl)cccc4Cl)[nH]c23)O1` ?
4.3%

Next up: `Cc1cccc(Cl)c1Nc1nc2cc(C(=O)Nc3cc(C(F)(F)F)ccc3F)c3c(c2[nH]1)CC(C)(C)O3`
7.5%

Query `Cn1c(Nc2c(F)cccc2Cl)nc2cc(C(=O)Nc3cccc(C(F)(F)F)c3)c3c(c21)CC(C)(C)O3` next
3.9%

Now try `CC1(C)Cc2c(c(C(=O)Nc3ccc(F)c(C(F)(F)F)c3)cc3nc(Nc4c(F)cccc4Cl)[nH]c23)O1` .
2.5%

* * *

Exercise: state measured IC50 for each of the molecules provided.
- STUDY_SYSTEM: UniProt:O14684
- MEASUREMENT_DESCRIPTION: Inhibition of recombinant human mPGES1 expressed in CHO cells assessed as reduction in PGE2 production using PGH2 as substrate incubated for 10 mins followed by substrate addition measured for 1 min
- Assay type: cell-based
Write the answer as a number in nM, unit excluded.

Give the reported IC50 for `Cc1cccc(Cl)c1Nc1nc2cc(C(=O)Nc3cc(C(F)(F)F)ccc3F)c3c(c2[nH]1)CC(C)(C)O3` (system: UniProt:O14684).
3.3

And for `Cc1cccc(Cl)c1Nc1nc2cc(C(=O)Nc3cc(C4CC4)ccc3F)c3c(c2[nH]1)CC(C)(C)O3` ?
10

Also `CC1(C)Cc2c(c(C(=O)Nc3ccccc3C(F)(F)F)cc3nc(Nc4c(Cl)cccc4Cl)[nH]c23)O1` , if possible.
4.9

// repeat for `Cc1cc(C(F)(F)F)ccc1NC(=O)c1cc2nc(Nc3c(F)cccc3Cl)[nH]c2c2c1OC(C)(C)C2` and report
6.1

Then `Cn1c(Nc2c(F)cccc2Cl)nc2cc(C(=O)Nc3ccc(C4CC4)cc3)c3c(c21)CC(C)(C)O3` ?
4.9

// query: `CC1(C)Cc2c(c(C(=O)Nc3cc(C4CC4)ccc3F)cc3nc(Nc4c(Cl)cccc4Cl)[nH]c23)O1`
16

Likewise for `CC1(C)Cc2c(c(C(=O)Nc3ccc(C(F)(F)F)cc3F)cc3nc(Nc4c(F)cccc4Cl)[nH]c23)O1` ?
3.1

Moving on to `Cc1ccc(NC(=O)c2cc3nc(Nc4c(F)cccc4Cl)n(C)c3c3c2OC(C)(C)C3)c(F)c1`
16

* * *

- MEASUREMENT_DESCRIPTION: Metabolic stability in guinea pig liver microsomes assessed as parent compound remaining at 1 uM after 60 mins in presence of NADPH by LC-MS/MS analysis
- Format: ADME, Cavia porcellus, microsome
- REPORTED_CONDITIONS: read-out: Stability
remaining at 1 h, 1 µM under 60% gets true, anything at or over 60% gets false.

Please indicate whether the reported remaining at 1 h, 1 µM of `CC1(C)Cc2c(c(C(=O)Nc3ccccc3C(F)(F)F)cc3nc(Nc4c(Cl)cccc4Cl)[nH]c23)O1` is strictly below 60%.
false

Would you kindly repeat that for `Cc1cc(C(F)(F)F)ccc1NC(=O)c1cc2nc(Nc3c(F)cccc3Cl)[nH]c2c2c1OC(C)(C)C2` ?
false

What would you report for `Cc1cccc(Cl)c1Nc1nc2cc(C(=O)Nc3cc(C(F)(F)F)ccc3F)c3c(c2[nH]1)CC(C)(C)O3` ?
true

Now consider `Cn1c(Nc2c(F)cccc2Cl)nc2cc(C(=O)Nc3cccc(C(F)(F)F)c3)c3c(c21)CC(C)(C)O3` .
true

Proceed to `Cc1cccc(Cl)c1Nc1nc2cc(C(=O)Nc3ccc(F)c(C(F)(F)F)c3)c3c(c2[nH]1)CC(C)(C)O3`
false

Do the same for `Cc1ccc(NC(=O)c2cc3nc(Nc4c(F)cccc4Cl)n(C)c3c3c2OC(C)(C)C3)c(F)c1` please
true

// same read-out, input: `CC1(C)Cc2c(c(C(=O)Nc3cc(C4CC4)ccc3F)cc3nc(Nc4c(F)cccc4Cl)[nH]c23)O1`
false

Here is the next compound: `CC1(C)Cc2c(c(C(=O)Nc3ccc(C(F)(F)F)cn3)cc3nc(Nc4c(Cl)cccc4Cl)[nH]c23)O1`
false

* * *

- MEASUREMENT_DESCRIPTION: Half life in Sprague-Dawley rat at 10 mg/kg, po
- Type: ADME, organism-based
- REPORTED_CONDITIONS: in vivo
MEASURED_ATTRIBUTE: half-life
Kindly format the answer as number then unit.

Need half-life of `CC1(C)Cc2c(c(C(=O)Nc3ccc(C(F)(F)F)cn3)cc3nc(Nc4c(Cl)cccc4Cl)[nH]c23)O1` , thanks.
2.7 h

Please do the same for `CC1(C)Cc2c(c(C(=O)Nc3ccc(F)c(C(F)(F)F)c3)cc3nc(Nc4c(F)cccc4Cl)[nH]c23)O1` as well.
4 h

Proceed to `Cc1cccc(Cl)c1Nc1nc2cc(C(=O)Nc3cc(C(F)(F)F)ccc3F)c3c(c2[nH]1)CC(C)(C)O3`
7 h

* * *

- STUDY_SYSTEM: Prostaglandin E synthase (Homo sapiens)
- Sequence (O14684 whole entry): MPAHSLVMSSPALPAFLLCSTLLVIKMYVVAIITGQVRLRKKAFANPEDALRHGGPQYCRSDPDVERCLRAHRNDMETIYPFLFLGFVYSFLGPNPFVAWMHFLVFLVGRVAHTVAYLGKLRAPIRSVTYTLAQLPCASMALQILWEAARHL
- MEASUREMENT_DESCRIPTION: Inhibition of mPGES1 in human whole blood assessed as reduction in LPS-induced PGE2 production measured after 20 to 24 hrs
Rule for this label: 1 means IC50 is less than 0.4 µM; -1 means IC50 is at least 0.4 µM.

Item `CC1(C)Cc2c(c(C(=O)Nc3ccccc3C(F)(F)F)cc3nc(Nc4c(Cl)cccc4Cl)[nH]c23)O1` : IC50 beneath 0.4 µM, strictly?
-1

// repeat for `CC1(C)Cc2c(c(C(=O)Nc3cc(C4CC4)ccc3F)cc3nc(Nc4c(F)cccc4Cl)[nH]c23)O1` and report
-1

What do we get for `Cc1cccc(Cl)c1Nc1nc2cc(C(=O)Nc3cc(C(F)(F)F)ccc3F)c3c(c2[nH]1)CC(C)(C)O3` ?
1

Then `Cc1cccc(Cl)c1Nc1nc2cc(C(=O)Nc3ccc(C(F)(F)F)cc3)c3c(c2[nH]1)CC(C)(C)O3` ?
1

Now the compound `CC1(C)Cc2c(c(C(=O)Nc3ccc(C(F)(F)F)cn3)cc3nc(Nc4c(F)cccc4Cl)[nH]c23)O1`
-1

Let us now turn to `CC1(C)Cc2c(c(C(=O)Nc3ccccc3C(F)(F)F)cc3nc(Nc4c(F)cccc4Cl)[nH]c23)O1`
-1

Likewise for `Cc1cc(C(F)(F)F)ccc1NC(=O)c1cc2nc(Nc3c(F)cccc3Cl)[nH]c2c2c1OC(C)(C)C2` ?
1

Now this one: `Cc1cccc(Cl)c1Nc1nc2cc(C(=O)Nc3cc(C4CC4)ccc3F)c3c(c2[nH]1)CC(C)(C)O3`
-1

* * *

Kindly supply the reported inhibition values for the records listed here.
- STUDY_SYSTEM: Thromboxane-A synthase (Homo sapiens)
- Sequence (whole entry): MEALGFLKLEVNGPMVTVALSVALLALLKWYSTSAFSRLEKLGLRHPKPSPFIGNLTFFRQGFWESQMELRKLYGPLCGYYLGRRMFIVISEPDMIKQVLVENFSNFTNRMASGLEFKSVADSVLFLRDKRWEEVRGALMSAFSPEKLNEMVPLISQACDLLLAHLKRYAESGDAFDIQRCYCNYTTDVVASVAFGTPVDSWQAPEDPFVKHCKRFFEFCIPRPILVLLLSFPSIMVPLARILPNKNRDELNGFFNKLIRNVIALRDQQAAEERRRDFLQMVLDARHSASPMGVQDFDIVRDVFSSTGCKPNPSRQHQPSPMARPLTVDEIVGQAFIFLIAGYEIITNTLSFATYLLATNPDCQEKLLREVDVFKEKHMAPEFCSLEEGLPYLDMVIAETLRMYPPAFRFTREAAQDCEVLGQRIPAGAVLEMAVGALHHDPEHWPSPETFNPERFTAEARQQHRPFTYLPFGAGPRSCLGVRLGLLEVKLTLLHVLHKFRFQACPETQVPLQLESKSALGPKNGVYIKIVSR
- MEASUREMENT_DESCRIPTION: Inhibition of TXAS (unknown origin) at 10 uM relative to control
Numeric only. Scale: %

Return reported inhibition; argument: `CC1(C)Cc2c(c(C(=O)Nc3cc(C(F)(F)F)ccc3F)cc3nc(Nc4c(F)cccc4Cl)[nH]c23)O1`
4.6

Another molecule to check: `Cc1cccc(Cl)c1Nc1nc2cc(C(=O)Nc3cc(C(F)(F)F)ccc3F)c3c(c2[nH]1)CC(C)(C)O3`
0.87

Now try `Cn1c(Nc2c(F)cccc2Cl)nc2cc(C(=O)Nc3cccc(C(F)(F)F)c3)c3c(c21)CC(C)(C)O3` .
22.1

Repeat for the following molecule: `CC1(C)Cc2c(c(C(=O)Nc3ccc(C(F)(F)F)cn3)cc3nc(Nc4c(Cl)cccc4Cl)[nH]c23)O1`
1.3

What about `CC1(C)Cc2c(c(C(=O)Nc3ccc(F)c(C(F)(F)F)c3)cc3nc(Nc4c(F)cccc4Cl)[nH]c23)O1` ?
25.5

# repeat for `Cc1cccc(Cl)c1Nc1nc2cc(C(=O)Nc3cc(C(F)F)ccc3F)c3c(c2[nH]1)CC(C)(C)O3`
17.2
